- measured.on: UniProt:P22303
- Sequence (P22303 whole entry): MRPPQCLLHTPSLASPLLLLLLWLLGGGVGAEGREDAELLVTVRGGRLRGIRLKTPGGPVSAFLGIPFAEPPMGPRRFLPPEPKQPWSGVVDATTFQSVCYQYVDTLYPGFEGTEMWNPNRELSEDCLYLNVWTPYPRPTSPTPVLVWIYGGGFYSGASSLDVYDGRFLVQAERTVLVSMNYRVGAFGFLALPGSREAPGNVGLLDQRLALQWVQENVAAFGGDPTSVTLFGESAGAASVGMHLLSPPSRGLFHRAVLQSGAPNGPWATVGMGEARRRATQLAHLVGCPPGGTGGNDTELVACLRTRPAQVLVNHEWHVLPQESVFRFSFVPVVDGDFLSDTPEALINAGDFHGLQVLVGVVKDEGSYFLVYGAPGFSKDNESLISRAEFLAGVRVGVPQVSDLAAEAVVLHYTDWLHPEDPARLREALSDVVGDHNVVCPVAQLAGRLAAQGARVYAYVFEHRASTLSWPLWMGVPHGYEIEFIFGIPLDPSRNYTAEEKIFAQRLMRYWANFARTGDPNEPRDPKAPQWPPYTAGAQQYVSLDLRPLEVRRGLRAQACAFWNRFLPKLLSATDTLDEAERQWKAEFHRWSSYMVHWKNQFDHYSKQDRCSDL
- method.description: Inhibition of human recombinant AChE using acetylthiocholine iodide as substrate preincubated for 5 mins followed by substrate addition by Ellman's method
Listed below: log10 of IC50 values for each entry.
Lab note - IC50 converted to log10 from values in µM.

>>> value_measured("COc1ccc2[nH]cc(CCNC(=O)/C=C/c3cc[n+](Cc4ccc(F)cc4)cc3)c2c1.[Br-]")
-0.68
>>> value_measured("Cc1ccc(C[n+]2ccc(C(=O)NCCc3c[nH]c4ccccc34)cc2)cc1.[Br-]")
0.76
>>> value_measured("O=C(NCCc1c[nH]c2ccccc12)c1cc[n+](Cc2ccccc2)cc1.[Br-]")
0.62
>>> value_measured("COc1ccc2[nH]cc(CCNC(=O)c3cc[n+](Cc4ccccc4F)cc3)c2c1.[Br-]")
0.52
>>> value_measured("O=C(NCCc1c[nH]c2ccccc12)c1ccc[n+](Cc2ccccc2)c1.[Br-]")
1.48
>>> value_measured("COc1ccc2[nH]cc(CCNC(=O)/C=C/c3cc[n+](Cc4ccccc4F)cc3)c2c1.[Br-]")
-0.59
>>> value_measured("Cc1cccc(C[n+]2ccc(C(=O)NCCc3c[nH]c4ccccc34)cc2)c1.[Br-]")
0.43
>>> value_measured("COc1ccc2[nH]cc(CCNC(=O)c3cc[n+](Cc4cccc(F)c4)cc3)c2c1.[Br-]")
0.58

Identify measured log10 of IC50 corresponding to "O=C(NCCc1c[nH]c2ccccc12)c1ccc[n+](Cc2ccccc2F)c1.[Br-]"
1.46

Identify measured log10 of IC50 corresponding to "COc1ccc2[nH]cc(CCNC(=O)c3cc[n+](Cc4ccc(OC(=O)N(C)C)cc4)cc3)c2c1.[Br-]"
0.11

* * *

- method.description: Antioxidant activity assessed as trolox equivalent of AAPH radical scavenging activity preincubated for 15 mins followed by addition of AAPH solution measured for 80 mins by ORAC-FL method
- Assay type: physicochemical
Listed below: Activity values for each entry.
Only the number, expressed in umolequiv/umol, is required.

>>> value_measured("COc1ccc2[nH]cc(CCNC(=O)CCc3cc[n+](Cc4ccc(F)cc4)cc3)c2c1.[Br-]")
2.49
>>> value_measured("N#Cc1ccc(C[n+]2ccc(C(=O)NCCc3c[nH]c4ccccc34)cc2)cc1.[Br-]")
1.56
>>> value_measured("COc1ccc2[nH]cc(CCNC(=O)c3cc[n+](Cc4ccc(OC(=O)N(C)C)cc4)cc3)c2c1.[Br-]")
2.04
>>> value_measured("COc1ccc2[nH]cc(CCNC(=O)c3cc[n+](Cc4ccc(F)cc4)cc3)c2c1.[Br-]")
2.09
>>> value_measured("COc1ccc2[nH]cc(CCNC(=O)/C=C/c3cc[n+](Cc4cccc(F)c4)cc3)c2c1.[Br-]")
3.41

Identify measured Activity corresponding to "COc1ccc2[nH]cc(CCNC(=O)/C=C/c3cc[n+](Cc4ccc(F)cc4)cc3)c2c1.[Br-]"
3.51

Identify measured Activity corresponding to "COc1ccc2[nH]cc(CCNC(=O)c3cc[n+](Cc4cccc(F)c4)cc3)c2c1.[Br-]"
1.87

Identify measured Activity corresponding to "COc1ccc2[nH]cc(CCNC(=O)/C=C/c3cc[n+](Cc4ccccc4F)cc3)c2c1.[Br-]"
3.66

Identify measured Activity corresponding to "COc1ccc2[nH]cc(CCNC(=O)c3cc[n+](Cc4ccccc4F)cc3)c2c1.[Br-]"
2.02

Identify measured Activity corresponding to "Cc1cccc(C[n+]2ccc(C(=O)NCCc3c[nH]c4ccccc34)cc2)c1.[Br-]"
1.36

Identify measured Activity corresponding to "O=C(NCCc1c[nH]c2ccccc12)c1ccc[n+](Cc2ccccc2)c1.[Br-]"
1.49

Identify measured Activity corresponding to "O=C(NCCc1c[nH]c2ccccc12)c1ccc[n+](Cc2ccccc2F)c1.[Br-]"
1.47

Identify measured Activity corresponding to "O=C(NCCc1c[nH]c2ccccc12)c1cc[n+](Cc2ccc(F)cc2)cc1.[Br-]"
1.32

Identify measured Activity corresponding to "O=C(NCCc1c[nH]c2ccccc12)c1cc[n+](Cc2ccccc2)cc1.[Br-]"
1.29
